pIC50 values by entry
# Test system: phosphorylation of AKT (pAKT) in T47D cells expressing mutant PI3Ka (H1047R)
# method: In vitro cell pAKT (Ser473) HTRF, T47D cells
# Format: cell-based
# experimental-setup: cellular pAKT, T47D cells, mutant PI3Ka (H1047R), 6 hours; read-out: Avg T-47D IC50
pIC50: −log10 of the molar value.

• Cc1cc(C(C)Nc2ccccc2C(=O)O)c2c(F)c(C3=CCN(CC(F)(F)F)CC3)n(C)c(=O)c2c1 (single isomer, unassigned) [Example 360] = < 4.82
• Cc1cc(C(C)Nc2ccccc2C(=O)O)c2cc(N3Cc4cccc(C(F)(F)F)c4C3)n(C)c(=O)c2c1 (single isomer, unassigned) [Example 92] = 6.30 to 9.00
• Cc1ccc(C2CN(c3cc4c([C@@H](C)Nc5cccc(F)c5C(=O)O)cc(F)cc4c(=O)n3C)C2)cn1 = 5.70 to 6.30
• Cc1cc(C(C)Nc2ccccc2C(=O)O)c2cc(N3CCN(C(=O)OC(C)C)CC3)n(C)c(=O)c2c1 (single isomer, unassigned) [Example 131] = < 4.82
• Cc1cc(C(C)Nc2ccccc2C(=O)O)c2cc(N3CCN(CC(F)(F)F)CC3)n(C)c(=O)c2c1 (single isomer, unassigned) [Example 8] = 6.30 to 9.00
• Cc1cc(C(C)Nc2ccc(Cl)nc2C(=O)O)c2cc(N3Cc4ccc(F)cc4C3)n(C)c(=O)c2c1 (single isomer, unassigned) [Example 128] = 6.30 to 9.00
• C[C@@H](Nc1ccccc1C(=O)O)c1cc(F)cc2c(=O)n(C)c(C3C[C@@H]3C(F)F)cc12 (single isomer, unassigned) = 6.30 to 9.00
• Cc1cc([C@@H](C)Nc2ccccc2C(=O)O)c2cc(C34CC(c5ccc(F)cc5)(C3)C4)n(C)c(=O)c2c1 = 6.30 to 9.00

Give recorded pIC50. Cc1cc(C(C)Nc2ccccc2C(=O)O)c2cc(N3C[C@@H]4CCCC[C@H]4C3)n(C)c(=O)c2c1 (single isomer, unassigned) [Example 100]
6.30 to 9.00

Give recorded pIC50. C[C@@H](Nc1ccccc1C(=O)O)c1cc(F)cc2c(=O)n(C)c(C3C[C@@H]3CF)cc12 (single isomer, unassigned)
6.30 to 9.00

Give recorded pIC50. C[C@@H](Nc1cccc(F)c1C(=O)O)c1cc(F)cc2c(=O)n(C)c(C3C[C@@H]3C3CC3)cc12 (single isomer, unassigned)
6.30 to 9.00

Give recorded pIC50. Cc1cc(C(C)Nc2ccc(Cl)nc2C(=O)O)c2cc(N3CCC(C)(C)CC3)n(C)c(=O)c2c1 (single isomer, unassigned) [Example 3]
5.70 to 6.30

----------
# Tested on: T47D cells expressing mutant PI3Ka (H1047R)
# method: In vitro cell proliferation, T47D cells (CellTiter-Glo)
# Format: cell-based
# experimental-setup: inhibition of proliferation, 72 hours, read-out: Avg T-47D EC50
EC50 values by entry

Solved entries (count: 5):
- Cc1cc(C(C)Nc2ccccc2C(=O)O)c2cc(N3CCN(CC(F)(F)F)CC3)n(C)c(=O)c2c1 (single isomer, unassigned) [Example 8]: 1 to 500 nM
- Cc1cc(C(C)Nc2ccccc2C(=O)O)c2cc(N3C[C@@H]4[C@@H](C#N)[C@@H]4C3)n(C)c(=O)c2c1 (stereo partly drawn) [Example 14]: 1 to 500 nM
- Cc1cc(C(C)Nc2ccccc2C(=O)O)c2cc(N3CCN(C(=O)OC(C)C)CC3)n(C)c(=O)c2c1 (single isomer, unassigned) [Example 131]: 2000 to 15000 nM
- Cc1cc(C(C)Nc2ccccc2C(=O)O)c2cc(N3CCN4CCC[C@H]4C3)n(C)c(=O)c2c1 (single isomer, unassigned) [Example 138]: > 15000 nM
- Cc1cc(C(C)Nc2ccc(Cl)nc2C(=O)O)c2cc(N3Cc4ccc(F)cc4C3)n(C)c(=O)c2c1 (single isomer, unassigned) [Example 128]: 1 to 500 nM

Now examine the next entry.
Give recorded EC50. Cc1cc(C(C)Nc2ccccc2C(=O)O)c2c(F)c(C3=CCN(CC(F)(F)F)CC3)n(C)c(=O)c2c1 (single isomer, unassigned) [Example 360]
2000 to 15000 nM

----------
# Test system: SKBR3 cells express WT PI3Ka
# method: In vitro cell proliferation, SKBR3 cells (CellTiter-Glo)
# Type: cell-based
# experimental-setup: Homo sapiens, SK-BR-3, 72 h, inhibition of proliferation
EC50 values by entry

Solved entries (count: 2):
• Cc1cc(C(C)Nc2ccccc2C(=O)O)c2cc(N3C[C@H]4CN(CC(F)(F)F)C[C@H]4C3)n(C)c(=O)c2c1 (single isomer, unassigned) = 2 to 15 µM
• Cc1cc(C(C)Nc2ccccc2C(=O)O)c2cc(N3CCN4CCC[C@@H]4C3)n(C)c(=O)c2c1 (single isomer, unassigned) = > 15 µM

Now examine the next entry.
Give recorded EC50. Cc1cc(C(C)Nc2ccccc2C(=O)O)c2cc(N3Cc4ccc(F)c(F)c4C3)n(C)c(=O)c2c1 (single isomer, unassigned)
> 15 µM

----------
EC50 values by entry
# Test system: SKBR3 cells express WT PI3Ka
# method: In vitro cell proliferation, SKBR3 cells (CellTiter-Glo)
# Assay type: cell-based
# experimental-setup: Homo sapiens, SK-BR-3, 72 h, inhibition of proliferation

• CCOc1ncc(-c2cc3c([C@@H](C)Nc4ccccc4C(=O)O)cc(C)cc3c(=O)n2C)s1 = > 15 µM
• COc1cccc(N2CCN(c3cc4c([C@@H](C)Nc5ccccc5C(=O)O)cc(C)cc4c(=O)n3C)CC2)c1 = > 15 µM
• Cc1cc([C@@H](C)Nc2ccccc2C(=O)O)c2cc(N3CCC(C)(C#N)C3)n(C)c(=O)c2c1 (some centres unmarked) = > 15 µM
• Cc1cc(C(C)Nc2ccccc2C(=O)O)c2cc(N3CCN4C(=O)CCC4C3)n(C)c(=O)c2c1 (single isomer, unassigned) = > 15 µM
• Cc1cc([C@@H](C)Nc2nccnc2C(=O)O)c2cc(N3CCN(CC(F)(F)F)CC3)n(C)c(=O)c2c1 = 2 to 15 µM
• Cc1cnc(-c2ncc(-c3cc4c([C@@H](C)Nc5ccccc5C(=O)O)cc(F)cc4c(=O)n3C)cc2F)cn1 = 2 to 15 µM
• Cc1cc([C@@H](C)Nc2ccccc2C(=O)O)c2cc(-c3ccc(C(C)C)nc3)n(C)c(=O)c2c1 = > 15 µM
• Cc1cc([C@@H](C)Nc2ccccc2C(=O)O)c2cc(-c3cnc(C)cn3)n(C)c(=O)c2c1 = > 15 µM
• COc1ncc(-c2cc3c([C@@H](C)Nc4ccccc4C(=O)O)cc(C)cc3c(=O)n2C)cn1 = > 15 µM
• CCOc1ccc(-c2cc3c(C(C)Nc4ccccc4C(=O)O)cc(C)cc3c(=O)n2C)cn1 (single isomer, unassigned) = > 15 µM

Give recorded EC50. Cc1cc([C@@H](C)Nc2ccccc2C(=O)O)c2cc(-c3ccc(C4CC4)nc3)n(C)c(=O)c2c1
> 15 µM

Give recorded EC50. C[C@@H](Nc1ccccc1C(=O)O)c1cc(F)cc2c(=O)n(C)c(-c3cnc(-c4ccc(F)cn4)c(F)c3)cc12
> 15 µM

Give recorded EC50. Cc1cc([C@@H](C)Nc2ccccc2C(=O)O)c2cc(OCC(C)C)n(C)c(=O)c2c1
> 15 µM

Give recorded EC50. Cc1cc(C(C)Nc2ccccc2C(=O)O)c2cc(N3CCC4(CCN(CC(F)(F)F)C4)CC3)n(C)c(=O)c2c1 (centres unmarked)
2 to 15 µM

----------
# System: phosphorylation of AKT (pAKT) in T47D cells expressing mutant PI3Ka (H1047R)
# method: In vitro cell pAKT (Ser473) HTRF, T47D cells
# Type: cell-based
# experimental-setup: cellular pAKT, T47D cells, mutant PI3Ka (H1047R), 6 hours; read-out: Avg T-47D IC50
observation-type: IC50

Solved entries (count: 5):
- Cc1cc([C@@H](C)Nc2ccccc2C(=O)O)c2cc(N3CCC4(CC3)CN(CC(F)(F)F)C4)n(C)c(=O)c2c1: 1 to 500 nM
- C[C@@H](Nc1ccccc1C(=O)O)c1cc(F)cc2c(=O)n(C)c(C3C[C@@H]3C(F)(F)F)cc12 (single isomer, unassigned): 1 to 500 nM
- Cc1cc(C(C)Nc2ccccc2C(=O)O)c2cc(C#Cc3ccccc3)n(C)c(=O)c2c1 (single isomer, unassigned) [Example 36]: 1 to 500 nM
- Cc1cc(C(CF)Nc2ccccc2C(=O)O)c2cc(N3CCN(CC(F)(F)F)CC3)n(C)c(=O)c2c1 (single isomer, unassigned) [Example 38]: 1 to 500 nM
- Cc1cc(C(C)Nc2ccccc2C(=O)O)c2cc(N3CCC4(CCOCC4)CC3)n(C)c(=O)c2c1 (single isomer, unassigned) [Example 166]: 2000 to 15000 nM

Now examine the next entry.
GET IC50 | system: phosphorylation of AKT (pAKT) in T47D cells expressing mutant PI3Ka (H1047R) | item: Cc1cc(C(C)Nc2ccccc2C(=O)O)c2cc(N3CCC(c4ccccc4)C3)n(C)c(=O)c2c1 (single isomer, unassigned) [Example 104]
> 15000 nM
